Molecular target: human GLP-1 receptor (human, UniProt P43220 24-463)
Assay: cell-based or functional assay
*1 amine or outer side, *2 acyl side, *3 side chain or, on linkers, in order; H or OH if unused. Bridges are numbered along the chain shown (N, C = ends). Where no end group is shown, it is not given here. [ ]: non-standard residue; d: D form. Oxa12‑cholesterol = C10 = Cys(oxa12-cholesterol); γGlu = O=C(O)[C@H](CCC(=O)[*:2])N[*:1]; Aib = CC(C)(N)C(=O)O
QUANTITY_MEASURED: hGLP-1R EC50 (nM)
Hi! Could you send only the number? It should be in nM, unit omitted.

Consider the following illustrative entries.
BINDER	QUANTITY_MEASURED	ENDPOINT_VALUE
H[Aib]QGTFTSDYSKYLDERRAKDFVQWLMNTK[γGlu][γGlu]C(Oxa12‑cholesterol)-OH (lactam 16-20) [OXM395]	hGLP-1R EC50	0.7
HXQGTFTSDYSKYLDSRRAQDFVQWLMNTKEEC (Acb (1-amino-1-cyclobutane carboxylic acid) at position 2; gamma-glutamic acid at positions 31 and 32; C10 = Cys(oxa12-cholesterol) at position 33; C-terminal COOH) [OXM401]	hGLP-1R EC50	0.23

Below: the item to evaluate.
Task: Which hGLP-1R EC50 is reported for this binder? HSQGTFTSDYSKYLDSRRAQDFVQWLMNTKEEC (D-Ser at position 2; gamma-glutamic acid at positions 31 and 32; C10 = Cys(oxa12-cholesterol) at position 33; C-terminal COOH) [OXM399]
Result: 0.05
